Measured MFI (6 hour), listed per entry.
- Tested System: T1, HLA-A*0201 on T2 cells (human)
- T1 construct: the class I molecule on T2 cells that the added peptide stabilises; also called HLA-A2; HLA-A2 molecules
- Assay Text: T2 cell HLA-A*0201 stabilisation; 100 µM peptide overnight, Brefeldin A, BB7.2 mAb staining, flow cytometry; MFI minus no-peptide control
Measure Name: MFI (6 hour) (MFI)

# Binder, Units Text, Recorded Number
measured = [
    ("FLLPALIFAV (Free peptide added to T2 cells; also called peptide 804) [CD133-804]", "MFI", 34.7),
    ("ILSAFSVYV (Free peptide added to T2 cells) [CD133-405]", "MFI", 44.5),
    ("SLNDPLCLV (Free peptide added to T2 cells; also called peptide 301) [CD133-301]", "MFI", 13.3),
    ("GLLERVTRI (Free peptide added to T2 cells; also called peptide 708) [CD133-708]", "MFI", 1.3),
    ("LLFIILMPLV (Free peptide added to T2 cells; also called peptide 117) [CD133-117]", "MFI", 1.01),
]
